Molecular target: Hepatitis C virus serine protease, NS3/NS4A (Hepatitis C virus, UniProt A3EZI9+D2K2A8)
Sequence (D2K2A8 whole entry): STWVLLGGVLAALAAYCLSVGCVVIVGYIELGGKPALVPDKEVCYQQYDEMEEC
Sequence (A3EZI9 whole entry): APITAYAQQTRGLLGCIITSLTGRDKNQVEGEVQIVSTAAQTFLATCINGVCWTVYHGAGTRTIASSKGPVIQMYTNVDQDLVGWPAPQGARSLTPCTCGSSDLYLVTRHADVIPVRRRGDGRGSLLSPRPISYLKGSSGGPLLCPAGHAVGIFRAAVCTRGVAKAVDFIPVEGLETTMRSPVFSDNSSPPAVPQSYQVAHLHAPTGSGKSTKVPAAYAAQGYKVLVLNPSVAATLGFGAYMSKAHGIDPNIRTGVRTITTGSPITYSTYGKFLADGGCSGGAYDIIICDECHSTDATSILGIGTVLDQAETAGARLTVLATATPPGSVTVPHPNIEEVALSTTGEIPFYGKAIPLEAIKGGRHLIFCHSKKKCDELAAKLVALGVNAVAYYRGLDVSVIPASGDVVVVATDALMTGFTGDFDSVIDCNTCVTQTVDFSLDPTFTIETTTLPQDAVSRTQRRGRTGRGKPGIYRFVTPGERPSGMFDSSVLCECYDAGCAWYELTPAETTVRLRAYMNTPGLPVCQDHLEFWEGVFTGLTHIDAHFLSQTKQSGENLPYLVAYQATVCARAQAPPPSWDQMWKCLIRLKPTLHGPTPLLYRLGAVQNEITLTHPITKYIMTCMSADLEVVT
Assay: Inhibitory concentration evaluated against NS3/4A protease.
Format: protein-complex assay, Hepacivirus hominis
pIC50: −log10 of the molar value.
Property name: pIC50

Molecule | Tgt | Property name | Measured
CC(C)C[C@H](NC(=O)[C@H](O)c1cccs1)C(=O)N[C@@H](CC(F)F)C(=O)C(=O)O | Hepatitis C virus serine protease, NS3/NS4A (Hepatitis C virus, UniProt A3EZI9+D2K2A8) | pIC50 | 4.74
CC(C)C[C@H](NC(=O)[C@@H](NC(=O)OC(C)(C)C)C1CCCC1)C(=O)N[C@@H](CC(F)F)C(=O)C(=O)O | Hepatitis C virus serine protease, NS3/NS4A (Hepatitis C virus, UniProt A3EZI9+D2K2A8) | pIC50 | 6.42
CC(C)C[C@H](NC(=O)C(Sc1ccccc1)c1ccccc1)C(=O)N[C@@H](CC(F)F)C(=O)C(=O)O (some centres not stated) | Hepatitis C virus serine protease, NS3/NS4A (Hepatitis C virus, UniProt A3EZI9+D2K2A8) | pIC50 | 5.15
COc1ccc([C@@H](O)C(=O)N[C@@H](CC(C)C)C(=O)N[C@@H](CC(F)F)C(=O)C(=O)O)cc1 | Hepatitis C virus serine protease, NS3/NS4A (Hepatitis C virus, UniProt A3EZI9+D2K2A8) | pIC50 | 4.89
CC(C)C[C@H](NC(=O)[C@H](O)c1ccc(Cl)cc1)C(=O)N[C@@H](CC(F)F)C(=O)C(=O)O | Hepatitis C virus serine protease, NS3/NS4A (Hepatitis C virus, UniProt A3EZI9+D2K2A8) | pIC50 | 4.89

(I) CC(C)C[C@H](NC(=O)[C@H](O)c1ccccc1Cl)C(=O)N[C@@H](CC(F)F)C(=O)C(=O)O
(II) COc1ccc(C(Oc2ccccc2)C(=O)N[C@@H](CC(C)C)C(=O)N[C@@H](CC(F)F)C(=O)C(=O)O)cc1 (some centres not stated)
## Input Kindly identify the item with the lower pIC50 figure among these two: I and II Field: selected label. Fill in the label of the entry you choose.
## Output I

(I) CC(C)C[C@H](NC(=O)[C@H](O)c1ccc(C(F)(F)F)cc1)C(=O)N[C@@H](CC(F)F)C(=O)C(=O)O
(II) CC(C)C[C@H](NC(=O)[C@H](O)c1ccccc1)C(=O)N[C@@H](CC(F)F)C(=O)C(=O)O
## Input Two entries are listed, I and II . Which one carries the higher pIC50? Field: selected label. Fill in the label of the entry you choose.
## Output II
(II: 5.52, I: 4.55)
